All values here come from ChEMBL document CHEMBL3352748.

assay: Clearance in mouse at 5 mg/kg, iv; type: ADME, organism-based; parameters: dose 5 mg/kg, route intravenous; conditions: in vivo
Task for the reader: assign each of the following compounds its reported clearance.
Express the reported value numerically, then name its unit.

input: Any idea what its clearance is? The compound is CN(C(=O)c1cn2c(-c3ccc(C(N)=O)cc3)cnc2cn1)c1ccc(F)cc1
output: 39.7 mL/min/kg

input: Item: CNC(=O)c1ccc(-c2cnc3cnc(C(=O)N(C)c4ccc(Cl)cc4)cn23)cc1
output: 19.3 mL/min/kg

input: Item: CN(C(=O)c1cn2c(-c3ccc(-c4nnc(N)s4)cc3)cnc2cn1)c1ccc(C#N)cc1
output: 16.2 mL/min/kg

input: Item: CNC(=O)c1ccc(-c2cnc3cnc(C(=O)N(C)c4ccc(C#N)cc4)cn23)cc1
output: 34 mL/min/kg
